- Assay System: recombinant human PIM1 (Homo sapiens (Human), UniProt P11309)
- Sequence (P11309 whole entry): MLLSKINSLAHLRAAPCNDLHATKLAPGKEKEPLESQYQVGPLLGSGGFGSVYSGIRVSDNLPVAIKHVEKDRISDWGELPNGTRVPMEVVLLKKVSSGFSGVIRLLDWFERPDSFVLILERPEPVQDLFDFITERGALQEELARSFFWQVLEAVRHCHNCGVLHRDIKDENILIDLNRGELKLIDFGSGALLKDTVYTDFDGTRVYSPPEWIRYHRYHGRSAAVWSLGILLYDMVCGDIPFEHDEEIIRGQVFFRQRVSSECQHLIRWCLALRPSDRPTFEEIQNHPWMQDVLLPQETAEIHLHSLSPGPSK
- Measurement Description: PIM-1 kinase activity in cell-free in vitro assay
- Type: biochemical
- Condition Notes: 500 nM compound, cell-free assay; read-out: PIM-1: % inh 500 nM
Property Measured: inhibition at 0.5 µM (%)
Write down the numeric answer in % and omit the unit.

*Q* Could you tell me which inhibition at 0.5 µM is on file for NC(=O)c1ccc2c(c1)nc(Nc1cc(F)cc(Cl)c1)c1ccncc12 ?
*A* 5.67

*Q* Could you tell me which inhibition at 0.5 µM is on file for O=C(O)c1ccc2c(c1)nc(NC1CC1)c1nc(NC(CO)c3ccccc3)ncc12 (centres unmarked) ?
*A* -22.8

*Q* Could you tell me which inhibition at 0.5 µM is on file for O=C(NCc1ccccn1)c1ccc2c(c1)nc(Nc1cccc(Cl)c1)c1ccncc12 ?
*A* -11.1

*Q* Could you tell me which inhibition at 0.5 µM is on file for CC(C)Oc1ccc(Nc2ncc3c(n2)c(NC2CC2)nc2cc(C(=O)O)ccc23)cc1 ?
*A* 26.3

*Q* Could you tell me which inhibition at 0.5 µM is on file for Fc1cccc(Nc2nc3cc(-c4nnn[nH]4)ccc3c3cscc23)c1 ?
*A* 14

* * *

- Assay System: recombinant human PIM1 (Homo sapiens (Human), UniProt P11309)
- Measurement Description: PIM-1 kinase activity in cell-free in vitro assay
- Format: biochemical
- Condition Notes: 500 nM compound, cell-free assay; read-out: PIM-1: % inh 500 nM
Measured inhibition at 0.5 µM of individual entries
Note: state the figure and append the unit.

Recorded inhibition at 0.5 µM, per entry:
*Q* Could you tell me which inhibition at 0.5 µM is on file for O=C(O)c1ccc2c(c1)nc(NCc1ccccn1)c1ccncc12 ?
*A* 14.3%

*Q* Could you tell me which inhibition at 0.5 µM is on file for CCN1CCCC1CNc1nc2cc(C#N)ccc2c2ccsc12 (stereo not shown) ?
*A* -9.29%

*Q* Could you tell me which inhibition at 0.5 µM is on file for O=C(O)c1ccc2c(c1)nc(NC1CC1)c1nc(NC3CC3)ncc12 [drawing 1616] ?
*A* 27.1%

*Q* Could you tell me which inhibition at 0.5 µM is on file for COC(=O)c1ccc2c(c1)nc(NCCn1cccc1)c1ccncc12 ?
*A* -34.6%

*Q* Could you tell me which inhibition at 0.5 µM is on file for CC(C)OCCNc1ncc2c(n1)c(NC1CC1)nc1cc(C(=O)O)ccc12 ?
*A* -2.46%

API: the following record is the query input.
*Q* Could you tell me which inhibition at 0.5 µM is on file for Fc1cc(F)cc(Nc2nc3cc(-c4nnn[nH]4)ccc3c3cscc23)c1 ?
*A* 11.1%

* * *

- Assay System: recombinant human PIM1 (Homo sapiens (Human), UniProt P11309)
- Measurement Description: PIM-1 kinase activity in cell-free in vitro assay
- Assay type: biochemical
- Condition Notes: 500 nM compound, cell-free assay; read-out: PIM-1: % inh 500 nM
Measured inhibition at 0.5 µM of individual entries
Write down the numeric answer in % and omit the unit.

*Q* Could you tell me which inhibition at 0.5 µM is on file for CN(C)CCNc1nc2cc(-c3nnn[nH]3)ccc2c2sc(Br)cc12 ?
*A* 60.7

*Q* Could you tell me which inhibition at 0.5 µM is on file for O=C(O)c1ccc2c(c1)nc(NC1CC1)c1nc(NCC3CC3)ncc12 ?
*A* 15.7

*Q* Could you tell me which inhibition at 0.5 µM is on file for Nc1ccc(CCNc2nc3cc(C(=O)O)ccc3c3cnccc23)cc1 ?
*A* 81.8

*Q* Could you tell me which inhibition at 0.5 µM is on file for CN(CCN1CCCC1)c1nc2cc(C#N)ccc2c2sccc12 ?
*A* -3.97

*Q* Could you tell me which inhibition at 0.5 µM is on file for O=C(Nc1ccccc1)c1ccc2c(c1)nc(Nc1cccc(Cl)c1)c1ccncc12 ?
*A* -0.772

---
*Q* Could you tell me which inhibition at 0.5 µM is on file for O=C(NCCN1CCOCC1)c1ccc2c(c1)nc(Nc1cccc(Cl)c1)c1ccncc12 ?
*A* 1.16

*Q* Could you tell me which inhibition at 0.5 µM is on file for O=C(O)c1ccc2c(c1)nc(NC1CC1)c1nc(NCC3CCCO3)ncc12 (stereo not shown) ?
*A* 10.5

*Q* Could you tell me which inhibition at 0.5 µM is on file for COCCNC(=O)c1ccc2c(c1)nc(Nc1cccc(Cl)c1)c1ccncc12 ?
*A* -29.7

*Q* Could you tell me which inhibition at 0.5 µM is on file for O=C(O)c1ccc2c(c1)nc(Nc1cc(F)ccc1Br)c1ccncc12 ?
*A* 64.5

*Q* Could you tell me which inhibition at 0.5 µM is on file for CCN(c1ccccc1)c1nc2cc(C(=O)O)ccc2c2cnccc12 ?
*A* 28
